test system: RXF 393 renal; assay: NCI tumour cell line growth inhibition, 48 h
Outcome: satisfied for TGI of at least 4 µM; not satisfied for anything lower.

> print(dat)
                                   compound  assigned.label
1  CC(=O)C1=C(N=[N+]=[N-])c2cccc3cccc(c23)C1=O       satisfied

Prompt: Quick check: does CC1(c2ccc(Cl)cc2)CC(c2ccc(Cl)cc2)=C(C#N)C(=C(C#N)C#N)N1 (stereo not given) have TGI greater than or equal to 4 µM?
Response: satisfied

Prompt: Quick check: does COc1cc(/C=C/C(C)=O)ccc1OP(=O)(O)O have TGI greater than or equal to 4 µM?
Response: satisfied

Prompt: Quick check: does O=C1C=C(Nc2ccccc2C(=O)CC(=O)C(=O)Nc2cccc(C(F)(F)F)c2)c2ccccc2C1=O have TGI greater than or equal to 4 µM?
Response: satisfied

Prompt: Quick check: does COCCOC(=O)C1=C(C)NC2=C(C(=O)CC(c3ccccc3OC)C2)C1c1cccc(O)c1 (stereo not given) have TGI greater than or equal to 4 µM?
Response: satisfied

Prompt: Quick check: does CC(=O)OC1COC(S[As](C)C)C(OC(C)=O)C1OC(C)=O (stereo not given) have TGI greater than or equal to 4 µM?
Response: not satisfied

Prompt: Quick check: does CC[C@@]1(O)C(=O)OCc2c1cc1n(c2=O)Cc2c-1nc1ccccc1c2CC[Si](C)(C)C have TGI greater than or equal to 4 µM?
Response: not satisfied

Prompt: Quick check: does COc1cc(OC)c2c(c1OC)OCC(Cc1ccc(O)cc1)C2=O (stereo not given) have TGI greater than or equal to 4 µM?
Response: satisfied

Prompt: Quick check: does C(=C1c2ccccc2-c2ccccc21)c1ccccn1 have TGI greater than or equal to 4 µM?
Response: satisfied
